# Tested on: Colo205 tumor cell lines
# TEST_PROTOCOL: Celltiter Glo growth inhibition assay (cellular Method B)
# Format: cell-based
# REPORTED_CONDITIONS: Homo sapiens, COLO 205, 72 h, Table 3, Method B Celltiter Glo, 3 days
# Method: Human breast tumor cells (BT474) were cultured in RPMI, (Invitrogen, 22400) containing 10% fetal bovine serum (FBS). Human head and neck tumor cells (HN5) were cultured in low glucose DMEM (Invitrogen, 12320) containing 10% FBS. […] Plates were incubated without shaking for 30 more min and read in a luminometer with an integration time of 0.5 seconds per well. Percent inhibition of cell growth was calculated relative to vehicle treated control wells. […]
MEASURED_PARAMETER: IC50

Below, 3 molecules whose answers are already recorded.
| MOLECULE | IC50 |
| --- | --- |
| O=C(Cc1ccsc1)Nc1cccc(-c2nn3ccccc3c2-c2ccnc(Nc3cccc(-c4cnco4)c3)n2)c1 | 100 to 1000 nM |
| CN(C)CCOc1cccc(Nc2nccc(-c3c(-c4cccc(NC(=O)Cc5cccs5)c4)nn4cc(F)ccc34)n2)c1 | 100 to 1000 nM |
| CN(C)CCNCc1cccc(Nc2nccc(-c3c(-c4cccc(NC(=O)Cc5cccs5)c4)nn4ccccc34)n2)c1 | 100 to 1000 nM |

input: # IC50 lookup, item COc1ccc(Nc2nccc(-c3c(-c4cccc(NC(=O)Cc5cccs5)c4)nn4ccccc34)n2)cc1N1CCN(CCS(C)(=O)=O)CC1
output: < 100 nM

input: Do the same for O=C(Cc1c[nH]c2ccccc12)Nc1cccc(-c2nn3ccccc3c2-c2ccnc(Nc3cccc(-c4cnco4)c3)n2)c1 please
output: > 1000 nM

input: Do the same for O=C(Cc1ccccn1)Nc1cccc(-c2nn3ccccc3c2-c2ccnc(Nc3cccc(-c4cnco4)c3)n2)c1 please
output: 100 to 1000 nM

input: Do the same for CN(C)CCOc1cccc(Nc2nccc(-c3c(-c4cccc(NC(=O)Cc5cccs5)c4)nn4cccc(F)c34)n2)c1 please
output: > 1000 nM

input: Do the same for CN1CCc2ccc(Nc3ncc(F)c(-c4c(-c5cccc(NC(=O)c6c(F)cccc6F)c5)nn5ccccc45)n3)cc2C1 please
output: 100 to 1000 nM

input: Do the same for CN(C)C1Cc2ccc(Nc3nccc(-c4c(-c5ccc(F)c(NC(=O)Cc6cccs6)c5)nn5ccccc45)n3)cc2C1 (stereo not drawn) please
output: 100 to 1000 nM
